This listing pairs compounds with measured Activity.
# procedure-summary: Induction of adipogenesis in human AT-MSC assessed as adiponectin secretion at 30 uM in IDX medium incubated for 5 days by ELISA (reference value: 100 +/- 15 pg/ml)
# Type: functional, Adipose tissue derived mesenchymal stem cell
# condition-set: time 5 day
Give just the number in pg/mL; leave the unit off.

In [3]: df
Out[3]:
                  compound_structure_string  quantity_unit  measured
0  COc1cc(OC)c(OC)cc1/C=C/C(=O)OCc1cc(=O)c(O)co1          pg/mL       103
1  COc1ccc(/C=C/C(=O)OCc2cc(=O)c(O)co2)cc1OC          pg/mL       120
2  COc1cc(OC)c(/C=C/C(=O)OCc2cc(=O)c(O)co2)c(OC)c1          pg/mL        87
3   COc1ccc(/C=C/C(=O)OCc2cc(=O)c(O)co2)cc1          pg/mL       138
4  COc1cc(/C=C/C(=O)OCc2cc(=O)c(O)co2)cc(OC)c1          pg/mL        67
5     COc1ccccc1/C=C/C(=O)OCc1cc(=O)c(O)co1          pg/mL       221
6  O=C(/C=C/c1ccc2c(c1)OCO2)OCc1cc(=O)c(O)co1          pg/mL       164
7  COc1cc(/C=C/C(=O)OCc2cc(=O)c(O)co2)cc(OC)c1OC          pg/mL       137
8   COc1cccc(/C=C/C(=O)OCc2cc(=O)c(O)co2)c1          pg/mL       265
9  COc1ccc(OC)c(/C=C/C(=O)OCc2cc(=O)c(O)co2)c1          pg/mL       383

Consider the compound COc1ccc(/C=C/C(=O)OCc2cc(=O)c(O)co2)c(OC)c1OC and give its measured Activity. 137

Return reported Activity; argument: COc1cccc(/C=C/C(=O)OCc2cc(=O)c(O)co2)c1OC 281
